# tested_target: Cyclin-dependent kinase 2/cyclin A (Homo sapiens, UniProt P24941)
# method_description: Inhibition of CDK2/cyclin A (unknown origin) using […] incubated for 40 mins in presence of ATP by Kinase-Glo assay
Recorded log10 of IC50 by entry
Each number you see is log10 of IC50, and the unit inside the log is nM.

>  <item_smiles>
Cc1cnc(Nc2ccc(S(N)(=O)=O)cc2)nc1Nc1nc(C2CC2)cs1

>  <value_type>
log10 of IC50

>  <recorded_value>
0.70

$$$$

Missing value: log10 of IC50, Cyclin-dependent kinase 2/cyclin A (Homo sapiens, UniProt P24941), entry COc1ccc(Nc2nccc(Nc3nccs3)n2)cc1 . Fill in?
2.96

Missing value: log10 of IC50, Cyclin-dependent kinase 2/cyclin A (Homo sapiens, UniProt P24941), entry Cc1cnc(Nc2ccc(S(N)(=O)=O)cc2)nc1Nc1nc(-c2ccc(F)cc2)cs1 . Fill in?
1.51

Missing value: log10 of IC50, Cyclin-dependent kinase 2/cyclin A (Homo sapiens, UniProt P24941), entry Cc1cnc(Nc2ccc(S(=O)(=O)N3CCCCC3)cc2)nc1Nc1nccs1 . Fill in?
1.41

Missing value: log10 of IC50, Cyclin-dependent kinase 2/cyclin A (Homo sapiens, UniProt P24941), entry NS(=O)(=O)c1ccc(Nc2nccc(Nc3ncc([N+](=O)[O-])s3)n2)cc1 . Fill in?
1.58
